List of IC50 values.
Experimental system: human JAK1 (a.a. 837-1142) catalytic domain (Homo sapiens)
Construct: human JAK1 (a.a. 837-1142) and JAK2 (a.a. 828-1132); His tag (N); made in house; host or cells: insect cells (baculovirus)
Sequence (P23458 849-1154): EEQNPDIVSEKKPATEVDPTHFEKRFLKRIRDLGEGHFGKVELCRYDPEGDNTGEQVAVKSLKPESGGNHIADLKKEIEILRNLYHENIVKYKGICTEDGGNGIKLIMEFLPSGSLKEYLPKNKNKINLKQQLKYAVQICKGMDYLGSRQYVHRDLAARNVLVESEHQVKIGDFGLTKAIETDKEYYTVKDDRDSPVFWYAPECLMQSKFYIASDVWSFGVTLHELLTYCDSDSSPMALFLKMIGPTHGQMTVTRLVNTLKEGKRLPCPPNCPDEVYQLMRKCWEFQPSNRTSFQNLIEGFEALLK
Experimental details: In vitro JAK kinase assay (HTRF, phosphorylation of a biotinylated peptide), JAK1
Type: biochemical
Conditions: 1 mM ATP

>>> reported_measurement("CC1(NCc2cc(OC3CCN([C@H]4C[C@](CC#N)(n5cc(-c6ncnc7[nH]ccc67)cn5)C4)CC3)nc(C(F)(F)F)c2)COC1")
"< 20 nM"
>>> reported_measurement("N#CC[C@]1(n2cc(-c3ncnc4[nH]ccc34)cn2)C[C@H](N2CCC(Nc3cc(CNCCO)cc(C(F)(F)F)n3)CC2)C1")
"< 20 nM"

// next entry
[ask] // query IC50 value for entry N#CC[C@]1(n2cc(-c3ncnc4[nH]ccc34)cn2)C[C@H](N2CCC(Oc3cc(C4(O)COC4)cc(C(F)(F)F)n3)CC2)C1
[reply] < 20 nM

Ref: patent US9193733B2
